# System: Mus musculus
# METHOD: Tested for in vivo antinociceptive activity in mouse abdominal constriction assay
# Assay type: functional
# TEST_CONTEXT: Abdomen
ED50 values by entry
EXPERIMENTAL_ENDPOINT: ED50 (µmol/kg)

| MOLECULAR_STRING | UNIT_ABBREV | COMPARISON_SYMBOL | ASSAY_RESULT |
| --- | --- | --- | --- |
| CN1CC[C@]23c4c5ccc(O)c4O[C@H]2[C@@H](O)C=C[C@H]3[C@H]1C5 | µmol/kg | = | 1.34 |
| CCN(CC)C[C@@H]1CCCCN1C(=O)Cc1ccc2c(c1)CCCC2=O | µmol/kg | = | 1.2 |
| CN(C[C@@H]1CCCCN1C(=O)Cc1ccc2c(c1)CCCC2=O)C1CCC1 | µmol/kg | = | 0.34 |
| CCCN(C)C[C@@H]1CCCCN1C(=O)Cc1ccc2c(c1)CCCC2=O | µmol/kg | = | 0.62 |
| CC(C)N(C)C[C@@H]1CCCCN1C(=O)Cc1ccc2c(c1)CCCC2=O | µmol/kg | = | 0.22 |
| CN(C[C@@H]1CCCCN1C(=O)Cc1ccc2c(c1)CCCC2=O)C1CC1 | µmol/kg | = | 0.4 |
| O=C1CCCc2sc(CC(=O)N3CCCC[C@H]3CN3CCCC3)cc21 | µmol/kg | = | 1.41 |
| O=C1CCCCc2cc(CC(=O)N3CCCC[C@H]3CN3CCCC3)ccc21 | µmol/kg | > | 1.5 |
| CN(C)C[C@@H]1CCCCN1C(=O)Cc1ccc2c(c1)CCCC2=O | µmol/kg | = | 0.47 |
| O=C1CCc2cc(CC(=O)N3CCCC[C@H]3CN3CCCC3)ccc21 | µmol/kg | > | 1.5 |
| O=C(Cc1ccc2c(c1)CCCC2)N1CCCC[C@H]1CN1CCCC1 | µmol/kg | = | 0.57 |
| O=C(Cc1ccc(C(F)(F)F)cc1)N1CCCC[C@H]1CN1CCCC1 | µmol/kg | = | 0.1 |
| CN(C[C@@H]1CCCCN1C(=O)Cc1ccc2c(c1)CCCC2=O)C1CCCC1 | µmol/kg | = | 0.55 |
| CN(CC1CC1)C[C@@H]1CCCCN1C(=O)Cc1ccc2c(c1)CCCC2=O | µmol/kg | = | 1.36 |
| CCN(C)C[C@@H]1CCCCN1C(=O)Cc1ccc2c(c1)CCCC2=O | µmol/kg | = | 0.18 |
| C=CCN(C)C[C@@H]1CCCCN1C(=O)Cc1ccc2c(c1)CCCC2=O | µmol/kg | = | 0.37 |
| C#CCN(C)C[C@@H]1CCCCN1C(=O)Cc1ccc2c(c1)CCCC2=O | µmol/kg | = | 0.16 |
| O=C1CCCc2cc(CC(=O)N3CCCC[C@H]3CN3CCCC3)ccc21 | µmol/kg | = | 0.35 |

----------
# SYSTEM_NAME: Sigma non-opioid intracellular receptor 1 (Mus musculus, UniProt O55242)
# Sequence (O55242 whole entry): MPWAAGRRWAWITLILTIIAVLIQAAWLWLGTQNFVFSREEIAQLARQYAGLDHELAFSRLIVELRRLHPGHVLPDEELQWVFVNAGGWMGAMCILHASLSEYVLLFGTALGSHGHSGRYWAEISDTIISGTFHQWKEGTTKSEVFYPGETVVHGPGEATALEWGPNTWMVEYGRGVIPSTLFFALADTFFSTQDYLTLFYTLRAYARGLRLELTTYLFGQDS
# METHOD: Evaluated for the binding affinity at sigma receptor

| MOLECULAR_STRING | Ki [µM] |
| --- | --- |
| CN(C)C[C@@H]1CCCCN1C(=O)Cc1ccc2c(c1)CCCC2=O | 1.21 |

----------
# SYSTEM_NAME: Mu-type opioid receptor (Mus musculus)
# Sequence (P42866 whole entry): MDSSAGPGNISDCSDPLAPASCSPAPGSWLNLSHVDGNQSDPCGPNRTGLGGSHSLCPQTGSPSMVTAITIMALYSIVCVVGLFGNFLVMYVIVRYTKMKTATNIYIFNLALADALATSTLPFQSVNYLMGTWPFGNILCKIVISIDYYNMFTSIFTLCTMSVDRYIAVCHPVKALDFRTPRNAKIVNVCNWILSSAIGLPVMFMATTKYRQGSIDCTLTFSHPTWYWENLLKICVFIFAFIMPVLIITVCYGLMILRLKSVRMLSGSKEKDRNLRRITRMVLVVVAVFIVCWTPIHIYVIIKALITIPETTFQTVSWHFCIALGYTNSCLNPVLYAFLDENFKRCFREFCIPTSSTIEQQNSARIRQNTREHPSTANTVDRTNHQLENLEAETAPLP
EXPERIMENTAL_ENDPOINT: Ki

| MOLECULAR_STRING | SYSTEM_NAME | EXPERIMENTAL_ENDPOINT | ASSAY_RESULT |
| --- | --- | --- | --- |
| CN(C)C[C@@H]1CCCCN1C(=O)Cc1ccc2c(c1)CCCC2=O | Mu-type opioid receptor (Mus musculus) | Ki | 6.79 µM |

----------
# SYSTEM_NAME: Kappa-type opioid receptor (Mus musculus, UniProt P33534)
# Sequence (P33534 whole entry): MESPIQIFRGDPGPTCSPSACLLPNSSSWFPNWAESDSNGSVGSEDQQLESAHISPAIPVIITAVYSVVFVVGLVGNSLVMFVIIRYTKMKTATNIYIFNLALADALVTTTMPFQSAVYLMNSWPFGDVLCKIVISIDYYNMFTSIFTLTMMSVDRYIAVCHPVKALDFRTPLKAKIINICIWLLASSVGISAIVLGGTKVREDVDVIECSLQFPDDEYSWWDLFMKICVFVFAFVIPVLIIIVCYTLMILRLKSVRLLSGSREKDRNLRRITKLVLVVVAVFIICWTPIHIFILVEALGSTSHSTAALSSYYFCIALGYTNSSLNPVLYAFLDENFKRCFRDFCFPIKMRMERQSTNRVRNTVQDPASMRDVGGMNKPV
EXPERIMENTAL_ENDPOINT: log10 of Ki (log10 of the value in µM)

| MOLECULAR_STRING | log10 of Ki |
| --- | --- |
| O=C1CCCc2ccc(CC(=O)N3CCCC[C@H]3CN3CCCC3)cc21 | -2.25 |
| CN(C[C@@H]1CCCCN1C(=O)Cc1ccc2c(c1)CCCC2=O)C1CC1 | -1.28 |
| CCN(CC)C[C@@H]1CCCCN1C(=O)Cc1ccc2c(c1)CCCC2=O | -1.10 |
| C#CCN(C)C[C@@H]1CCCCN1C(=O)Cc1ccc2c(c1)CCCC2=O | -2.20 |
| CN(C)C[C@@H]1CCCCN1C(=O)Cc1ccc2c(c1)CCCC2=O | -1.33 |
| CCN(C)C[C@@H]1CCCCN1C(=O)Cc1ccc2c(c1)CCCC2=O | -1.99 |
| CN(CC1CC1)C[C@@H]1CCCCN1C(=O)Cc1ccc2c(c1)CCCC2=O | -1.52 |
| O=C(Cc1ccc(C(F)(F)F)cc1)N1CCCC[C@H]1CN1CCCC1 | -3.19 |
| O=C1CCCCc2cc(CC(=O)N3CCCC[C@H]3CN3CCCC3)ccc21 | -2.26 |
| C=CCN(C)C[C@@H]1CCCCN1C(=O)Cc1ccc2c(c1)CCCC2=O | -1.72 |
| CCCN(C)C[C@@H]1CCCCN1C(=O)Cc1ccc2c(c1)CCCC2=O | -1.65 |
| O=C1CCCc2cc(CC(=O)N3CCCC[C@H]3CN3CCCC3)ccc21 | -2.12 |
| O=C(Cc1ccc2c(c1)CCCC2)N1CCCC[C@H]1CN1CCCC1 | -3.09 |
| O=C1CCc2cc(CC(=O)N3CCCC[C@H]3CN3CCCC3)ccc21 | -2.10 |
| CN(C[C@@H]1CCCCN1C(=O)Cc1ccc2c(c1)CCCC2=O)C1CCC1 | -1.46 |
| CN(C[C@@H]1CCCCN1C(=O)Cc1ccc2c(c1)CCCC2=O)C1CCCC1 | -1.70 |
| O=C1CCCc2sc(CC(=O)N3CCCC[C@H]3CN3CCCC3)cc21 | -2.18 |
| CC(C)N(C)C[C@@H]1CCCCN1C(=O)Cc1ccc2c(c1)CCCC2=O | -2.39 |
